Tested on: OVCAR-5 ovarian
EXPERIMENTAL_PROTOCOL: NCI-60 one-dose screen, 48 h
ASSAY_CONTEXT: 10 µM unless noted
Protocol: Growth inhibition of the OVCAR-5 human tumor cell line is measured as a screen for anti-cancer activity. Cells are grown in 96 well plates and exposed to the test compound for 48 hours. Compounds are tested at a single concentration, which is 10^-5 M for most compounds. The reported endpoint is percent growth (GI% or GIPRCNT), where numbers from 0 - 100% represent growth inhibition, and numbers from -100% - 0 represent cell death. For example, a value of 40 represents 60% growth inhibition. […]
About 83,000 compounds went through this panel and 20% of them were active in at least one assay; those are over-represented in the sample as a whole. Active and inactive are the calls of the source. How the source made its calls: active means growth percent below 10; inactive means the rest.
Classes used: yes for active, no for inactive

| COMPOUND | GROUP |
| --- | --- |
| COc1cc(C=Nc2cccc(Br)c2)ccc1N(CCCl)CCCl | no |
| C1CCC([PH+](C2CCCCC2)C2CCCCC2[PH+](C2CCCCC2)C2CCCCC2)CC1.[Au].[CH-]1CCCCC1CC1CCCC[N-]1 (configuration not stated) | yes |
| Clc1cccc(N2COOC3(OOC2)C2CC4CC(C2)CC3C4)c1 | no |
| CC(=O)Nc1nc2c(s1)CC[C@@]1(C)C2=CC[C@H]2[C@@H]3CC[C@H](O)[C@@]3(C)CC[C@@H]21 | no |
| COC(C(=O)[C@@H](O)[C@@H](C)O)[C@@H]1Cc2cc3cc(O[C@H]4C[C@@H](O[C@H]5C[C@@H](O)[C@H](O)C(C)O5)[C@H](O)C(C)O4)c(C)c(O)c3c(O)c2C(=O)[C@H]1O[C@H]1C[C@@H](O[C@H]2C[C@@H](O[C@H]3C[C@@H](O)[C@@H](O)C(C)O3)[C@@H](O)C(C)O2)[C@H](O)C(C)O1 (some centres not stated) | no |
| O=[N+]([O-])c1cnc[nH]1 | no |
| O=C1C(=Cc2cn(Cc3ccccc3)c3ccccc23)C(=O)N(Cc2ccccc2)C(=O)N1Cc1ccccc1 | yes |
| CCCCCCCCCCCCNC(c1ccccc1)C(O)c1ccccc1 (configuration not stated) | no |
| c1ccc(Nc2nc(-c3ccccc3)c[se]2)cc1 | no |
| C#Cc1ccc2c(c1)C(c1ccccc1F)=NCC(=O)N2C | no |
| O=C1C=C2C(=CCOC2O)O1 (configuration not stated) | no |
| O=C(CN1CCN(C(=O)c2ccco2)CC1)Nc1ccc(Cl)cc1C(=O)c1ccccc1Cl | no |
| NC1CC2CCCCC2CC1(O)c1ccccc1 (configuration not stated) | no |
| Fc1c[c-]c(-c2ccccn2)c(F)c1.[CH3-].[Pt+2].c1ccc([PH+](c2ccccc2)c2ccccn2)cc1 | yes |
| Oc1c(O)c(Cl)c(Cl)c(Cl)c1Cl | no |
| C[C@]12C[C@@H](CO)[C@H](O)C[C@@H]1CC[C@@H]1[C@@H]2CC[C@]2(C)[C@@H](O)CC[C@@H]12 | no |
| CC1[C@H](C)OC(=O)CC(O)CC(O)CC(O)CCC(O)C(O)C[C@]2(O)CC(O)C(C(=O)O)C(CC(OC3O[C@H](C)[C@@H](O)[C@H](N)[C@@H]3O)/C=C/C=C/C=C/C=C/CC/C=C/C=C/[C@H](C)[C@H]1O)O2 (some centres not stated) | no |

---

Test system: SN12C renal
EXPERIMENTAL_PROTOCOL: NCI-60 one-dose screen, 48 h (100 = growth as untreated, 0 = no growth, -100 = all killed)
ASSAY_CONTEXT: 10 µM unless noted
The panel holds about 83,000 compounds, 20% with a hit somewhere; the sample as a whole holds those more often.
EXPERIMENTAL_ENDPOINT: growth (%)

| COMPOUND | REPORTED |
| --- | --- |
| CCCCCCCCOC(=O)CCN1CC1 | 106 |
| CC[C@H](C)[C@H](NC(=O)C12C3C4C1C1C2C3C41NC(C)=O)C(=O)N(C)[C@H](C[C@@H](OC(C)=O)c1nc(C(=O)N[C@@H](Cc2ccccc2)C[C@H](C)C(=O)OC)cs1)C(C)C (some centres undefined) | 25.6 |
| COC(=O)CC[C@H](Cc1ccccc1)NC(=O)c1csc([C@@H](C[C@H](C(C)C)N(C)C(=O)[C@@H](NC(=O)[C@H]2CCCCN2C)C(C)C)OC(C)=O)n1 | 43.8 |
| C/C(=C\c1ccn(-c2ccccc2N)n1)[C@@H]1C[C@@H]2O[C@]2(C)CCC[C@H](C)[C@H](O)[C@@H](C)C(=O)C(C)(C)[C@@H](O)CC(=O)O1 | 38 |

---

System: COLO 205 colon
EXPERIMENTAL_PROTOCOL: NCI-60 one-dose screen, 48 h (100 = growth as untreated, 0 = no growth, -100 = all killed)
ASSAY_CONTEXT: 10 µM unless noted
Protocol: Cells are grown in 96 well plates and exposed to the test compound for 48 hours. Compounds are tested at a single concentration, which is 10^-5 M for most compounds. The reported endpoint is percent growth (GI% or GIPRCNT), where numbers from 0 - 100% represent growth inhibition, and numbers from -100% - 0 represent cell death. For example, a value of 40 represents 60% growth inhibition. A value of 0 means no net growth occurred over the course of the experiment. […]
Compounds without any hit were thinned out: in the full panel of roughly 83,000, 20% have a hit.
Classes are defined on growth with ranges Low = under -50%, Medium = from -50% up to 40%, High = 40% and over

| COMPOUND | GROUP |
| --- | --- |
| Clc1ccc2nnnn2n1 | Low |
| CC[C@H](C)[C@H](NC(=O)C12C3C4C1C1C2C3C41NC)C(=O)N(C)[C@H](C[C@@H](OC(C)=O)c1nc(C(=O)N[C@@H](Cc2ccccc2)C[C@H](C)C(=O)OC)cs1)C(C)C (some centres not stated) | Medium |
| CCn1c2ccccc2c2cc(C(=O)c3ccc(C)c4ccccc34)ccc21 | Medium |
| C/C1=C/C(=O)O[C@@H]2C[C@@H](CC[C@H](C)/C=C\C=C\CC1)O[C@@](O)([C@@H]1CSC(=O)N1CO)C2 | Low |
| ClCCN(CCCl)c1ccc(/C=N\N=C\c2ccc(N(CCCl)CCCl)cc2)cc1 | Medium |
| CCCCN1CCCC[C@@H]1C(=O)N[C@H](C(=O)N(C)[C@H](C[C@@H](OC(C)=O)c1nc(C(=O)NC2CCC(C(=O)OC)CC2)cs1)C(C)C)C(C)C (some centres not stated) | Medium |
| C[S+]1C=Cc2ccccc2C1c1ccc(Cl)cc1 (configuration not stated) | High |
| O=[N+]([O-])c1cc(I)cc([N+](=O)[O-])c1 | High |
| COc1ccc(/C=C\c2cc(OC)c(OC)c(OC)c2)cc1NC(=O)/C=C/c1cc(OC)c(OC)c(OC)c1 | High |
| COC(=O)[C@@]1(C)CC[C@]2(C)CC[C@]3(C)C4=CC=C5C(=CC(=O)C(O)=C5C)[C@]4(C)CC[C@@]3(C)[C@@H]2C1 | Low |
| ClCCN(CCCl)c1nc(Cl)c(C2CC(c3ccccc3)=NN2c2cc(Cl)cc(Cl)c2)s1 (configuration not stated) | High |
| CC(=O)[C@H]1CC[C@H]2[C@@H]3CC[C@H]4C[C@H](N)CC[C@]4(C)[C@H]3CC[C@]12C | High |
| Cc1c(O)c(CN(CCCl)CCCl)cc(CN(CCCl)CCCl)c1O | High |
| COc1cc2c(cc1OCCCCCn1c(-c3ccco3)nc3ccccc31)N=C[C@@H]1CCCN1C2=O | Medium |
| CC[C@H](C)[C@H](NC(=O)c1cccn1C)C(=O)N(C)[C@H](C[C@@H](OC(C)=O)c1nc(C(=O)N[C@@H](Cc2ccccc2)C[C@H](C)C(=O)OC)cs1)C(C)C | Low |
| COC(=O)CC12CC(NC(=O)c3csc([C@@H](C[C@H](C(C)C)N(C)C(=O)[C@@H](NC(=O)[C@H]4CCCCN4C)C(C)C)OC(C)=O)n3)(C1)C2 | Low |
| NC(CCl)CCl | Low |

---

System: T-47D breast
EXPERIMENTAL_PROTOCOL: NCI-60 one-dose screen, 48 h (100 = growth as untreated, 0 = no growth, -100 = all killed)
ASSAY_CONTEXT: 10 µM unless noted
The panel holds about 83,000 compounds, 20% with a hit somewhere; the sample as a whole holds those more often.
EXPERIMENTAL_ENDPOINT: growth (%)

| MOLECULE | MEASURE_UNIT | REPORTED |
| --- | --- | --- |
| CCN(CC)CCOC(=O)C(OC(C)C)(c1ccccc1)c1ccccc1 | % | 93.8 |
| COC(=O)C1OC(Oc2ccc(N(CCCl)CCCl)cc2)C(OC(C)=O)C(OC(C)=O)C1OC(C)=O (configuration not stated) | % | 77.4 |
| Cc1ccc(Nc2nc3c(s2)C2=CC[C@@H]4[C@H](CC[C@]5(C)C(=O)CC[C@@H]45)[C@@]2(C)CC3)cc1 | % | 43.8 |
| CCCC[C@H](NC(=O)[C@H]1CCCCN1C)C(=O)N(C)[C@H](C[C@@H](OC(C)=O)c1nc(C(=O)N[C@@H](Cc2ccccc2)C[C@H](C)C(=O)OCC)cs1)C(C)C | % | 38.6 |
| CC(=O)O[C@H](C[C@H](C(C)C)N(C)C(=O)[C@@H](NC(=O)[C@H]1CCCN1C)C(C)C)c1nc(C(=O)N[C@@H](Cc2ccccc2)C[C@H](C)C(=O)O)c(C)s1 | % | 50.6 |
| CC(=O)O[C@H](C[C@H](C(C)C)N(C)C(=O)[C@@H](NC(=O)[C@H]1CCCCN1C)C(C)C)c1nc(C(=O)N[C@@H](Cc2ccccc2)C[C@H](C)C(=O)O)c(C)s1 | % | 45.7 |
| COc1cc([C@@H]2c3cc4c(cc3[C@H](OC(C)=O)[C@H]3COC(=O)[C@H]23)OCO4)cc(OC)c1OC | % | 57.8 |
